For each of the sequences below, state its phosphorylation enrichment.
Test system: c-Src;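 also: 11-residue human phosphosite peptides and single-mutation variants displayed on the E. coli surface, counted by deep sequencing, each peptide's frequency after selection divided by its frequency in the unselected input library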;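 also: frequency after pTyr selection over input frequency; kinase dosed for 20-30% of maximal phosphorylation in three min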
assay_notes: phosphorylation enrichment, bacterial display (enrichment ratio); higher = better substrate or ligand; peptides without Tyr show the background
Numbers only.

As a guide, the following entries are already answered.
Query: Which phosphorylation enrichment value is on record for IKNSGYISRFL [EIF2AK3_Y585_YF] ?
Result: 0.43

Query: Which phosphorylation enrichment value is on record for VYYGSYSCPYG [NKAP_Y104_R106C] ?
Result: 6.91

Query: Which phosphorylation enrichment value is on record for NFRNTYVNANE [KCNH2_Y475_T473N] ?
Result: 0.424

Query: Which phosphorylation enrichment value is on record for EFKKHYGYSLY [ANXA3_Y295] ?
Result: 0.598

Query: Which phosphorylation enrichment value is on record for QRRYLYYYSYL [PTEN_Y176_V175L] ?
Result: 2.84

Please report phosphorylation enrichment for every entry that follows.
1. RLRVVYPWTQR [HBB_Y36_L33R]
2. MARDIYQASYY [LTK_Y672_R673Q]
3. NWGSPYKSNGC [ZNF347_Y261]
4. HGEAYYSEVKP [PAK5_Y182]
5. LKTNCYNNGKD [DNMT3B_Y404]
6. AKAFIYASHIV [ZNF573_Y229_G224A]

Result:
1. 0.382
2. 6.26
3. 0.52
4. 2.99
5. 0.572
6. 1.53

Please report phosphorylation enrichment for every entry that follows.
1. LDLSYYHTSSS [EMD_Y182_P183H]
2. HHIDYYKETTN [FGFR1_Y654_K656E]
3. WHFTFYNELRV [ACTC1_Y93_H90Y_YF]

Result:
1: 0.676; 2: 0.997; 3: 0.42

Data provenance: the supplement of paper PMC10065799
